Tested on: RBM10 RRM1-ZnF-RRM2 (GST-tagged construct);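 also: 20 pmol protein with 1.5 nmol RNA pool for 30 min at 4°C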
Assay: RNAcompete 7-mer binding Z-score; higher = stronger binding preference
Whole data set: some 16,000 sequences, median “Z-score” near -0.37, cut for the highest 2% near 3.1. This excerpt belongs to a sample that is enriched for the highest values.
readout_name: RNAcompete 7-mer binding Z-score
Answer with the value's number alone.

Example entries begin here.
>  <sequence_text>
UGAAAUU

>  <readout_name>
RNAcompete 7-mer binding Z-score

>  <reported_value>
-0.686

$$$$
>  <sequence_text>
GGCUUGU

>  <readout_name>
RNAcompete 7-mer binding Z-score

>  <reported_value>
-0.318

$$$$
>  <sequence_text>
UCCCCCU

>  <readout_name>
RNAcompete 7-mer binding Z-score

>  <reported_value>
-0.566

$$$$

Q: Looking for the measured RNAcompete 7-mer binding Z-score of "AUAAGGG" , can you help?
Result: 3.85

Q: And then "CUAGUGC" , what is it?
Result: -0.486

Q: Now this one: "CGGGUAG"
Result: 2.23
